# System: MDA-MB-231
# test-name: Cytostatic activity against human MDA-MB-231 cells assessed as inhibition of DNA synthesis after 24 hrs by [3H]thymidine incorporation assay
# Format: functional, cell-based
measured-endpoint: inhibition

Below, each entry is followed by its recorded inhibition result.
# compound, study-target, measured-endpoint, assay-result
measured = [
    ("CCOc1ccc(S(=O)(=O)N2CCOCC2)cc1-c1nnc2c(n1)c(C)nn2C", "MDA-MB-231", "inhibition", "Dose-dependent effect"),
    ("CCOc1ccc(S(=O)(=O)NCCO)cc1-c1nnc2c(n1)c(C)nn2C", "MDA-MB-231", "inhibition", "Dose-dependent effect"),
    ("Cc1nn(C)c2nnc(Nc3ccc(S(=O)(=O)N4CCN(C)CC4)cc3)nc12", "MDA-MB-231", "inhibition", "Dose-dependent effect"),
    ("CCOc1ccc(S(=O)(=O)NCCN)cc1-c1nnc2c(n1)c(C)nn2C", "MDA-MB-231", "inhibition", "Dose-dependent effect"),
    ("CCOc1ccc(S(=O)(=O)N2CCCCC2)cc1-c1nnc2c(n1)c(C)nn2C", "MDA-MB-231", "inhibition", "Dose-dependent effect"),
]

**Query** Query: inhibition; subject: Cc1nn(C)c2nnc(Nc3ccc(S(=O)(=O)N4CCCC4)cc3)nc12
**Result** Dose-dependent effect

**Query** Give the measured inhibition of Cc1nn(C)c2nnc(Nc3ccc(S(=O)(=O)NCCO)cc3)nc12 .
**Result** Dose-dependent effect

**Query** Consider the compound CCOc1ccc(S(=O)(=O)N2CCCNCC2)cc1-c1nnc2c(n1)c(C)nn2C and give its measured inhibition.
**Result** Dose-dependent effect

**Query** I'd like to know its inhibition. The compound in question is CCOc1ccc(S(=O)(=O)N2CCCC2)cc1-c1nnc2c(n1)c(C)nn2C
**Result** Dose-dependent effect

**Query** Give the measured inhibition of Cc1nn(C)c2nnc(Nc3ccc(S(=O)(=O)N4CCCCC4)cc3)nc12 .
**Result** Dose-dependent effect

**Query** I am curious: what inhibition value has been reported for Cc1nn(C)c2nnc(Nc3ccc(S(=O)(=O)N4CCNCC4)cc3)nc12 ?
**Result** Dose-dependent effect

**Query** What measured inhibition goes with CCOc1ccc(S(=O)(=O)N2CCN(C)CC2)cc1-c1nnc2c(n1)c(C)nn2C ?
**Result** Dose-dependent effect
